The reader will find reported inhibition at 6.25 µg/mL values listed item by item below.
# System: Mycobacterium tuberculosis
# procedure.summary: Antimycobacterial activity against drug-sensitive Mycobacterium tuberculosis H37Rv at 6.250 ug/mL relative to isoniazid by microplate alamar blue assay
# Format: functional
reported.metric: inhibition at 6.25 µg/mL (%)

molecule=CCCCCCNNC(=O)c1cc(C23CC4CC(CC(C4)C2)C3)c2ccccc2n1 recorded_number=77
molecule=O=C(N/N=C/c1ccc(C(F)(F)F)cc1C(F)(F)F)c1cc(C23CC4CC(CC(C4)C2)C3)c2ccccc2n1 recorded_number=64
molecule=O=C(N/N=C/c1ccncc1)c1cc(C23CC4CC(CC(C4)C2)C3)c2ccccc2n1 recorded_number=70
molecule=O=C(N/N=C/c1cccnc1)c1cc(C23CC4CC(CC(C4)C2)C3)c2ccccc2n1 recorded_number=53
molecule=O=C(NN(C(=O)c1ccccc1)C(=O)c1ccccc1)c1cc(C23CC4CC(CC(C4)C2)C3)c2ccccc2n1 recorded_number=51
molecule=O=C(NNc1ccccc1F)c1cc(C23CC4CC(CC(C4)C2)C3)c2ccccc2n1 recorded_number=99
molecule=CCCN(CCC)NC(=O)c1cc(C23CC4CC(CC(C4)C2)C3)c2ccccc2n1 recorded_number=75
molecule=CCCCN(CCCC)NC(=O)c1cc(C23CC4CC(CC(C4)C2)C3)c2ccccc2n1 recorded_number=64
molecule="CCC(C)NNC(=O)c1cc(C23CC4CC(CC(C4)C2)C3)c2ccccc2n1 (centres undefined)" recorded_number=97
